- target: UniProtKB P09668
- Sequence (P09668 116-335 limits assumed, other chains not shown): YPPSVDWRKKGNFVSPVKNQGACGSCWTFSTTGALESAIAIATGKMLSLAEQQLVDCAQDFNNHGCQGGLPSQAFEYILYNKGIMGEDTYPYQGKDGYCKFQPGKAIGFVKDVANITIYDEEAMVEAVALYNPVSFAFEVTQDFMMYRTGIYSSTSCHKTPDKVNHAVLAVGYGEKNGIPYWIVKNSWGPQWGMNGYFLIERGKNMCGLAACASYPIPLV
- test summary: Noncompetitive inhibition of human liver cathepsin H endopeptidase activity using R-AMC substrate assessed as inhibition constant for enzyme-substrate-inhibitor complex
Ki: recorded values
measured metric: Ki (µM)

sample smiles | unit annotation | number
N#CCNCc1cc([N+](=O)[O-])c2cccnc2c1O | µM | 129
CC1CCN(c2ccc([N+](=O)[O-])c3cccnc23)CC1 | µM | 221

----------
- target: Cathepsin B (Homo sapiens, UniProt P07858)
- test summary: Mixed inhibition of human recombinant cathepsin B […] assessed as inhibition constant for enzyme-inhibitor complex

sample smiles | Ki / µM
O=[N+]([O-])c1ccc(O)c2ccccc12 | 373
CCOC(=O)N1CCN(Cc2cc([N+](=O)[O-])c3cccnc3c2O)CC1 | 129
CCNCc1cc([N+](=O)[O-])c2cccnc2c1O | 117
O=C(O)[C@@H]1CCCC[C@@H]1NCc1cc([N+](=O)[O-])c2cccnc2c1O | 181
O=[N+]([O-])c1ccc(NCc2ccccc2)c2ncccc12 | 349
O=[N+]([O-])c1ccc(N2CCCC2)c2ccccc12 | 170

Cited source: ChEMBL document CHEMBL2311469
